src = patent US8377974B2

tgt: human plasma protein factor Xa (Homo sapiens, UniProt P00742)
Construct: measure proteolytic activity of the enzyme (factor Xa)
Sequence (P00742 235-488 limits assumed): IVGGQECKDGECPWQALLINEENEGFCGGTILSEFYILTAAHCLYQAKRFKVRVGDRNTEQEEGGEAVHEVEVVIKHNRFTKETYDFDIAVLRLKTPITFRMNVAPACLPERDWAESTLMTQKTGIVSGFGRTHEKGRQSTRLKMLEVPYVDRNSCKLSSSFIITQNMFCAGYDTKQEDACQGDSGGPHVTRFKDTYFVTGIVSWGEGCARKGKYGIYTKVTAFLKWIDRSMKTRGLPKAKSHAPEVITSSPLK
Sequence (P00742 41-179 partner limits assumed): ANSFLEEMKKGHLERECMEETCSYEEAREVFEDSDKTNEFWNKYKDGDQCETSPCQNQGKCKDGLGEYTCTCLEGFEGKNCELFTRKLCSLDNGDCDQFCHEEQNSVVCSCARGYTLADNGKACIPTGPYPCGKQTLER
test description: Factor Xa IC50 determination: cleavage of paranitroanilide substrate S-2765 in 96-well plates
experimental setup: fXa 1 nM, S-2765 100 μM, Tris buffered saline pH 7.4, room temperature
pIC50: −log10 of the molar value.
readout: pIC50

Consider the reported pIC50 for these molecules:
molecule="O=C(NCC1CC(c2ccc(Cl)cc2)=NO1)c1ccc(Cl)s1 (centres unmarked)" tgt="human plasma protein factor Xa (Homo sapiens, UniProt P00742)" result="≤ 6.30"
molecule="CN(C)C(=N)c1ccc(C2=NOC(C)(CNC(=O)c3ccc(Cl)s3)C2)cc1 (centres unmarked)" tgt="human plasma protein factor Xa (Homo sapiens, UniProt P00742)" result="≥ 7.00"
molecule="O=C(NCC1CC(c2ccc(-c3ccccn3)cc2)=NO1)c1ccc(Cl)s1 (centres unmarked)" tgt="human plasma protein factor Xa (Homo sapiens, UniProt P00742)" result="≥ 7.00"
molecule="CSc1cc(C(=N)N(C)C)ccc1C1=NOC(CNC(=O)c2ccc(Cl)s2)C1 (centres unmarked)" tgt="human plasma protein factor Xa (Homo sapiens, UniProt P00742)" result="≥ 7.00"

[in] Which measured pIC50 belongs to CN1CCN=C1c1ccc(-c2cncc(CNC(=O)c3ccc(Cl)s3)c2)cc1 , tested on human plasma protein factor Xa (Homo sapiens, UniProt P00742)?
[out] ≥ 7.00
